B1: glmS ribozyme (parent)
chain: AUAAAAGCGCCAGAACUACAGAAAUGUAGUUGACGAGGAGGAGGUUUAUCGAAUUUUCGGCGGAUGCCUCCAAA

- Variants of: B1
- PROTOCOL_DETAILS: self-cleavage kobs at 2500 uM GlcN6P; higher = faster cleavage; RNA array
- MEASUREMENT_PARAMETERS: with glucosamine-6-phosphate
This sample holds only a part of the variants without activity.
MEASURE_NAME: self-cleavage kobs at 2500 uM GlcN6P (s⁻¹)
Numbers only, in s⁻¹.

Worked cases, self-cleavage kobs at 2500 uM GlcN6P given:
{"CONSTRUCT_SEQUENCE": "AUAAAAGCGCCAGAAGUACAGAAAUGUAGUUGACGAGGAGGAGGUUUAUCGAAGUUUCGGCGGAUGCCUCCAAA [C16G U54G]", "self-cleavage kobs at 2500 uM GlcN6P / s⁻¹": 0.00175}
{"CONSTRUCT_SEQUENCE": "AUAAAAGCGCCAGAACUACAGAAAUGUAGUAGACGAGGAGGAGGUUUAGCGAAUUUUCGGCGGAUGCCUCCAAA [U31A U49G]", "self-cleavage kobs at 2500 uM GlcN6P / s⁻¹": 0.000183}
{"CONSTRUCT_SEQUENCE": "AUAAAAGCGCCAGGACUACAGAAAUGUAGUAGACGAGGAGGAGGUUUAUCGAAUUUUCGGCGGAUGCCUCCAAA [A14G U31A]", "self-cleavage kobs at 2500 uM GlcN6P / s⁻¹": 0.0146}

Fill in self-cleavage kobs at 2500 uM GlcN6P for each of the 6 variants listed.
1. AUAAAAGCGCCAGAAUUACAGAAAUGUAGUUGACGAGGAGGAGGUCUAUCGAAUAUUCGGCGGAUGCCUUCAAA [C16U U46C U55A C70U]
2. AUAAAAGCGCCAGAACUACAGAAAUGUACUUGAUGAUGAGGAGGUUUAUCGAAUUUUCGGCGGAUGCCUUCAAA [G29C C34U G37U C70U]
3. AUAAAAGCGCCAGAACUACAGAAAUGUAGGUGACGAGGAGGAGGUUUAUCGAGUUUUCGGCGGAUGCCUCCAAA [U30G A53G]
4. AUAAAAGCGCUAGAACUACAGAAAUGUAGGUGACGAGGAGGAGGGUUAUCGAAUUUUCGGCGGAUGCCUCCAAA [C11U U30G U45G]
5. AUAAAUGCGCCAGAACUACAGAAAUGUAGUUUACGAGGAGGAGGUUUAUGGAAUUUUCGGCGGAUGCCUCCAAA [A6U G32U C50G]
6. AUAAAAGCGCCACCACUACAGAAAUGUAGUUUACGAGGAGGAGGUUUAUCGAAUUUUCGGCGGAUGCCCCCAAA [G13C A14C G32U U69C]

*A*
1. 0.00219
2. 0.000116
3. 0.00534
4. 0.000105
5. 6.04e-05
6. 7.03e-05
